Source listed as ChEMBL document CHEMBL3425484.

tested on: Coxsackievirus; assay: Antiviral activity against Coxsackievirus B3 infected in african green monkey Vero cells assessed as reduction in viral-induced cytopathic effect; assay type: functional, organism-based
Would you kindly list IC50 for each of these compounds?
// units = µM; emit number, no label

Specify reported IC50 for the compound shown: O=C(O)C/C=C/[C@@H]1[C@H]2CCCN3CCC[C@@H](CN1S(=O)(=O)c1ccccc1C(F)(F)F)[C@@H]23
11.1

Give the measured IC50 for O=S(=O)(c1cccc(C(F)(F)F)c1)N1C[C@@H]2CCCN3CCC[C@@H]([C@H]23)[C@H]1/C=C\CCO
15

Annotate the compound O=C(O)C/C=C\[C@@H]1[C@H]2CCCN3CCC[C@@H](CN1S(=O)(=O)c1ccc([N+](=O)[O-])cc1)[C@@H]23 with its measured IC50.
49.8

Dear colleague, please send me the reported IC50 for COC(=O)CCC[C@@H]1[C@H]2CCCN3CCC[C@@H](CN1S(=O)(=O)c1ccc(C(F)(F)F)cc1)[C@@H]23 when you can.
2.54

Provide one value: measured IC50 of N#Cc1ccc(S(=O)(=O)N2C[C@@H]3CCCN4CCC[C@@H]([C@H]34)[C@H]2C/C=C/C(=O)O)cc1
29.9

---

system: Coxsackievirus; assay: Antiviral activity against Coxsackievirus B3 infected in african green monkey Vero cells assessed as reduction in viral-induced cytopathic effect; assay type: functional, organism-based
# Met = IC50 below 30 µM (exclusive); Not met = IC50 at/above 30 µM

Criterion: IC50 strictly below 30 µM. Is it met by COC(=O)C/C=C\[C@@H]1[C@H]2CCCN3CCC[C@@H](CN1S(=O)(=O)c1cccc(C#N)c1)[C@@H]23 ?
Met

Does COC(=O)C/C=C\[C@@H]1[C@H]2CCCN3CCC[C@@H](CN1S(=O)(=O)c1cccc([N+](=O)[O-])c1)[C@@H]23 have IC50 strictly under 30 µM?
Met

Is IC50 strictly under 30 µM for the entry COC(=O)C/C=C/[C@@H]1[C@H]2CCCN3CCC[C@@H](CN1S(=O)(=O)c1cccc(C#N)c1)[C@@H]23 ?
Met

Is IC50 strictly under 30 µM for the entry COC(=O)C/C=C/[C@@H]1[C@H]2CCCN3CCC[C@@H](CN1S(=O)(=O)c1ccccc1C#N)[C@@H]23 ?
Met

hey, is IC50 for COC(=O)C/C=C\[C@@H]1[C@H]2CCCN3CCC[C@@H](CN1S(=O)(=O)c1cccc(C(F)(F)F)c1)[C@@H]23 lower than 30 µM or not?
Met

Please check: IC50 for O=C(O)C/C=C\[C@@H]1[C@H]2CCCN3CCC[C@@H](CN1S(=O)(=O)c1ccc(C(F)(F)F)cc1)[C@@H]23 , strictly under 30 µM or not?
Met

Answer whether the molecule N#Cc1ccccc1S(=O)(=O)N1C[C@@H]2CCCN3CCC[C@@H]([C@H]23)[C@H]1C/C=C/C(=O)O has IC50 strictly less than 30 µM
Not met

Identify whether the molecule O=C(O)C/C=C/[C@@H]1[C@H]2CCCN3CCC[C@@H](CN1S(=O)(=O)c1ccc(C(F)(F)F)cc1)[C@@H]23 records IC50 below 30 µM.
Not met

# strict comparison: is reported IC50 < 30 µM? input = N#Cc1ccc(S(=O)(=O)N2C[C@@H]3CCCN4CCC[C@@H]([C@H]34)[C@H]2/C=C\CC(=O)O)cc1
Not met

Consider the molecule O=C(O)/C=C/C[C@@H]1[C@H]2CCCN3CCC[C@@H](CN1S(=O)(=O)c1ccccc1C(F)(F)F)[C@@H]23 . Is its IC50 strictly less than 30 µM?
Met

Quick check: does N#Cc1ccccc1S(=O)(=O)N1C[C@@H]2CCCN3CCC[C@@H]([C@H]23)[C@H]1/C=C\CC(=O)O have IC50 under 30 µM?
Met

Is it true that IC50 reported for O=[N+]([O-])c1ccccc1S(=O)(=O)N1C[C@@H]2CCCN3CCC[C@@H]([C@H]23)[C@H]1/C=C\CCO is less than 30 µM?
Met

Confirm or reject: IC50 of O=[N+]([O-])c1ccc(S(=O)(=O)N2C[C@@H]3CCCN4CCC[C@@H]([C@H]34)[C@H]2/C=C\CCO)cc1 lies strictly below 30 µM
Met

Does O=C(O)C/C=C\[C@@H]1[C@H]2CCCN3CCC[C@@H](CN1S(=O)(=O)c1cccc([N+](=O)[O-])c1)[C@@H]23 have IC50 strictly under 30 µM?
Not met
